Value source: the supplement of paper PMC10724198

Test system: Saccharomyces cerevisiae;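 note: PSI is a weighted mean of sequencing reads over stability bins, variants kept only with over 10 reads, mCherry proximal and sfGFP distal, peptide attached via GGGS linker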
Assay: protein stability index of tFT-peptide fusion (C-terminal peptide) (PSI (0-1 scale)); higher = more stable (slower turnover)
Details: genetic background: wild type; temperature: 30 C
Property Measured: protein stability index

Consider the worked cases shown below.
QUERY: Using the record for `EGVGLAETAGDD` , report its protein stability index.
RESULT: 0.684

QUERY: Using the record for `GGWAGLGAPGVS` , report its protein stability index.
RESULT: 0.697

QUERY: Using the record for `GSVGWRGGEGRW` , report its protein stability index.
RESULT: 0.59

QUERY: Using the record for `SPLPLASPFGFP` , report its protein stability index.
RESULT: 0.719

Would you kindly look at the next entry?
QUERY: Using the record for `CSGLFLAPSYTQ` , report its protein stability index.
RESULT: 0.713
